Molecular target: T1, human IL-36R extracellular domain expressed with a C-terminal mouse IgG2a Fc tag (hIL-36R-mFc) (human; mouse, UniProt Q9HB29 20-337)
T1 construct: not shown: mouse IgG2a Fc, E98-K330
T1 sequence (looked up): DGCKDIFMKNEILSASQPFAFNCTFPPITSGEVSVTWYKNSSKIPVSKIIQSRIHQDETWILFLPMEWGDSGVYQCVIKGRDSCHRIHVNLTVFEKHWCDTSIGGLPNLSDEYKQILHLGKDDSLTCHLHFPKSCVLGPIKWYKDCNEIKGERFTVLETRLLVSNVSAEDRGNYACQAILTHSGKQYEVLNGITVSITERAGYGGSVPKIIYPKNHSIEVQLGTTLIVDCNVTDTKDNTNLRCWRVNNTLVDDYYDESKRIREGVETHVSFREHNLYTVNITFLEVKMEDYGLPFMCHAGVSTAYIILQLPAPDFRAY
Assay: SPR Biacore 4000, mAb captured on anti-hFc, 37C
PARAMETER MEASURED: koff (s⁻¹)
Number in s⁻¹, nothing else.

{"BINDER": "H4H14699P2 (antibody, human IgG4 S228P, kappa, V domains shown, Fully human anti-IL-36R antibody) VH: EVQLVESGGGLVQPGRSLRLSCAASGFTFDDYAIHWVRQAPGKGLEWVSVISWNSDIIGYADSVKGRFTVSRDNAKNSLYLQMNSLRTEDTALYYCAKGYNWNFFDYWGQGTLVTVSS VL: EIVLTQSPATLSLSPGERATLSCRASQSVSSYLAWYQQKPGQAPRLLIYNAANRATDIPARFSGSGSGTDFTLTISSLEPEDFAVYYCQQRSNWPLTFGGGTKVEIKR", "koff [s⁻¹]": 0.000456}
{"BINDER": "H4H14700P2 (antibody, human IgG4 S228P, kappa, V domains shown, Fully human anti-IL-36R antibody) VH: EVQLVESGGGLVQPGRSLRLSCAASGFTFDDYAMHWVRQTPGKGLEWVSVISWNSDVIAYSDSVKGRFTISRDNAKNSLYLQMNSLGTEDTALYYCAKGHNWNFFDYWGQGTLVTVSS VL: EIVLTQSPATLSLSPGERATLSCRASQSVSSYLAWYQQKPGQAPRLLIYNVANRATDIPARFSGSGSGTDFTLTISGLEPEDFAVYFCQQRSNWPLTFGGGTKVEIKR", "koff [s⁻¹]": 0.000209}
{"BINDER": "H4H14709P (antibody, human IgG4 S228P, kappa, V domains shown, Fully human anti-IL-36R antibody) VH: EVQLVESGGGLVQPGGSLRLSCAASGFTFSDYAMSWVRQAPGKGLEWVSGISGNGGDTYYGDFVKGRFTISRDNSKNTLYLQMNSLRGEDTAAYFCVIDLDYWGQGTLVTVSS VL: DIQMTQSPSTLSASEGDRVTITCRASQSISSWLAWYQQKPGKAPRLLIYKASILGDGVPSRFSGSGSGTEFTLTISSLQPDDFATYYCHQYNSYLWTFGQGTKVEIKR", "koff [s⁻¹]": 0.000112}

Then this binder:
Consider the binder shown here: H4H14731P (antibody, human IgG4 S228P, kappa, V domains shown, Fully human anti-IL-36R antibody) VH: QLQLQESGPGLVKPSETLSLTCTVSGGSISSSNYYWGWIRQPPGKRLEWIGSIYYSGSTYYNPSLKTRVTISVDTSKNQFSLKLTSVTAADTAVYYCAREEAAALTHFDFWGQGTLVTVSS VL: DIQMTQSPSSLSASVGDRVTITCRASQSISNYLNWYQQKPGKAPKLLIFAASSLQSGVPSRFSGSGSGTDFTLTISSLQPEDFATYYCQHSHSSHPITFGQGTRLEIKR What is its recorded koff?
0.00045
